This collection of values is drawn from ChEMBL document CHEMBL1201862.

Quick list: GI50 per entry.
- Test system: TK-10
- methodDescription: NCI tumour cell line growth inhibition, 48 h
Activity calls are given as the source filed them. No stated cut-off is given here; in the data, active = GI50 up to about 1.1 µM and inactive = higher.

Known GI50 results, listed for orientation:
- molecule: "CN(C)c1n/c(=N/c2ncn[nH]2)ss1"
  GI50: "> 100 µM (inactive)"
- molecule: "CCc1ccc(CCC(=O)O)nc1"
  GI50: "> 100 µM (inactive)"
- molecule: "NS(=O)(=O)c1ccc(N2C(=O)C(=O)N(c3ccccc3)C2=S)cc1"
  GI50: "> 100 µM (inactive)"
- molecule: "Nc1cccc(/C=C/C(=O)N2CCN(CCOC(c3ccccc3)c3ccccc3)CC2)c1"
  GI50: "15 µM (inactive)"
- molecule: "COc1cccc(CN(C(=O)/C=C\\Sc2ccccc2)C(C)(C)C)c1"
  GI50: "> 100 µM (inactive)"

Asked: Kindly state the measured GI50 obtained for Cc1nn(C(=O)c2ccccc2O)c2c1C(c1ccc3ccccc3c1O)SC(=N)N2 (stereo unspecified) with TK-10.
Given back: 8.75 µM (inactive)

* * *

- Tested on: KM12
- methodDescription: NCI tumour cell line growth inhibition, 48 h
Activity calls are given as the source filed them. No stated cut-off is given here; in the data, active = GI50 up to about 1.1 µM and inactive = higher.
Quick list: GI50 per entry.

Known GI50 results, listed for orientation:
- molecule: "O=[N+]([O-])C(=C(Nc1ccccc1)Nc1ccccc1)C(Cl)=C(Cl)Cl"
  result: "24.9 µM (inactive)"
- molecule: "ON=C1CCC(c2ccccc2)CC1 (stereo unspecified)"
  result: "> 100 µM (inactive)"
- molecule: "C=C1CC2(C)CCC(OC(=O)C3(C)OC3C)C(C)(OC(C)=O)C2CC1=C(C)C (stereo unspecified)"
  result: "> 100 µM (inactive)"
- molecule: "C=CCSC1=N/C(=C\\c2ccc(Cl)cc2)C(=O)N1CC=C"
  result: "24.9 µM (inactive)"
- molecule: "CCOc1ccc(N/C(Cl)=C(Cl)\\C(=C(\\Nc2ccc(OCC)cc2)n2nnc3ccccc32)[N+](=O)[O-])cc1"
  result: "19.1 µM (inactive)"
- molecule: "CC1(CC(=O)OC(C#C[Si](C)(C)C)Cc2ccccc2)OCCO1 (stereo unspecified)"
  result: "> 100 µM (inactive)"
- molecule: "Cc1ccc(S(=O)(=O)NC(=O)Nc2cccc(S(N)(=O)=O)c2)cc1"
  result: "> 100 µM (inactive)"
- molecule: "c1ccc([P+](c2ccccc2)(c2ccccc2)c2ccc([P+](c3ccccc3)(c3ccccc3)c3ccccc3)c3ccccc23)cc1"
  result: "34.4 µM (inactive)"

Asked: For the molecule CCN(CC)CCNc1n[n+]([O-])c2cc([N+](=O)[O-])ccc2[n+]1[O-] , what GI50 is on record?
Given back: 0.948 µM (active)

Asked: For the molecule CCC1(c2ccncc2)CCC(=O)NC1=O (stereo unspecified) [ROGLETIMIDE] , what GI50 is on record?
Given back: > 100 µM (inactive)

Asked: For the molecule Cc1nc(O)nc(O)c1/C=C/C(=O)O , what GI50 is on record?
Given back: > 1000 µM (inactive)

* * *

- Test system: SF-539
- methodDescription: NCI tumour cell line growth inhibition, 48 h
Calls of active or inactive are those of the source. Cut-off read from the data, not from the text of the source: active = GI50 up to about 1.1 µM and inactive = higher.
The categories you may choose from are true (1) = active, false (0) = inactive

- molecule: "CC1(C)CN(c2ccccc2)C(=O)C1OC(=O)[C@@]1(C)C[C@@H]2C=C[C@H]1C2 (stereo not given in full)"
  assignedClass: "false (0)"
- molecule: "CCOC(=O)NC(Nc1ncccn1)(C(F)(F)F)C(F)(F)F"
  assignedClass: "false (0)"
- molecule: "COc1cc2cccc(N)c2cc1OC"
  assignedClass: "false (0)"
- molecule: "O=C1/C(=C/c2ccc(Br)cc2)CCC/C1=C\\c1ccc(Br)cc1"
  assignedClass: "false (0)"
- molecule: "O=C(O)/C(=C/c1ccccc1)c1ccccc1"
  assignedClass: "false (0)"

Asked: Please indicate how the test categorized C=C(C)CNC(=S)N(N)c1ccc2ccccc2c1 .
Given back: false (0)

Asked: Please indicate how the test categorized COc1cc(C2SC(C)C(=O)N2c2ccc(-c3csc(NS(=O)(=O)c4ccc(Cl)c(OC)c4)n3)cc2)ccc1O (stereo not given) .
Given back: false (0)

Asked: Please indicate how the test categorized Nc1nc2[nH]cnc2c(=S)[nH]1 .
Given back: true (1)

Asked: Please indicate how the test categorized C(=C\c1ccc2ccccc2c1Nc1ccccc1)/c1ccccc1 .
Given back: false (0)

Asked: Please indicate how the test categorized CC(C)C(=O)Nc1nc2[nH]cnc2c(=O)[nH]1 .
Given back: false (0)

Asked: Please indicate how the test categorized OC(c1cc2ccccc2[nH]1)C(O)(c1cc2ccccc2[nH]1)c1cc2ccccc2[nH]1 (stereo not given) .
Given back: false (0)

* * *

- Tested on: M14
- methodDescription: NCI tumour cell line growth inhibition, 48 h
The source made the active and inactive calls. Rule as the data show it: active = GI50 up to about 1.1 µM and inactive = higher.
The categories you may choose from are active, inactive

Would you please look over these solved cases?
- molecule: "CSc1ccc(-c2cc(-c3nc4ccccc4[nH]3)nc(N)c2C#N)cc1"
  assignedClass: "inactive"
- molecule: "Cc1occc1C(=S)Nc1ccc(Cl)c(/C=N/OC(C)(C)C)c1"
  assignedClass: "inactive"
- molecule: "Cc1cc(Cc2cc(C)c(NC(=O)C(=O)C3CCC4=C(SC5C=CC=CC5N4)C3=O)c(C(C)C)c2)cc(C(C)C)c1NC(=O)C(=O)C1CCC2=C(SC3C=CC=CC3N2)C1=O (stereo unspecified)"
  assignedClass: "inactive"
- molecule: "O=C(N/C(=C\\c1ccccc1[N+](=O)[O-])c1nc2ccccc2[nH]1)c1ccccc1"
  assignedClass: "inactive"
- molecule: "Nc1nc2[nH]cnc2c(=S)[nH]1"
  assignedClass: "active"
- molecule: "Cc1cnc2nc(-c3cccc4ccccc34)cc(O)c2c1"
  assignedClass: "active"

Asked: Please indicate how the test categorized CC1(C)CN(c2ccccc2)C(=O)C1OC(=O)[C@@]1(C)C[C@@H]2C=C[C@H]1C2 (stereo partly specified) .
Given back: inactive

Asked: Please indicate how the test categorized O=C1C(c2c(O)[nH]c3ccc(Cl)cc23)=Nc2ccccc21 .
Given back: inactive

Asked: Please indicate how the test categorized NCCOc1ccc(/C(=C(/Cl)c2ccccc2)c2ccccc2)cc1 .
Given back: inactive

Asked: Please indicate how the test categorized CC(C)Sc1nncc(/C(N)=N/O)n1 .
Given back: inactive

Asked: Please indicate how the test categorized CCOC(=O)C1=C(C)N(c2ccccc2)C2=C(C(=O)N(c3ccccc3)C2c2ccccc2)C1c1ccccc1 (stereo unspecified) .
Given back: inactive

Asked: Please indicate how the test categorized Cc1nc(Cl)c(C)c(Cl)n1 .
Given back: inactive

Asked: Please indicate how the test categorized N=C(N)SCc1cn2ccccc2n1 .
Given back: inactive

Asked: Please indicate how the test categorized Cc1cnoc1/N=C1\C=C(Nc2oncc2C)C(=O)c2ccccc21 .
Given back: inactive

Asked: Please indicate how the test categorized O=C1O/C(=C(/Br)c2ccc(Cl)c(Cl)c2)c2ccccc21 .
Given back: inactive

Asked: Please indicate how the test categorized CC(=O)Nc1ccc2c(c1)C(=O)c1cccc(F)c1-2 .
Given back: inactive

* * *

- Test system: EKVX
- methodDescription: NCI tumour cell line growth inhibition, 48 h
Calls of active or inactive are those of the source. Cut-off read from the data, not from the text of the source: active = GI50 up to about 1.1 µM and inactive = higher.
assayEndpoint: GI50

Known GI50 results, listed for orientation:
- compound: "CC(=O)Oc1ccc2c(c1)Oc1cc(C(C)=O)ccc1C21OC(=O)c2ccccc21 (stereo unspecified)"
  GI50: "> 100 µM (inactive)"
- compound: "Cc1ccc(SCC(=O)C2=C(O)CCCC2=O)cc1"
  GI50: "> 100 µM (inactive)"
- compound: "CC(=O)Nc1ccc2c(c1)C(=O)c1ccccc1-2"
  GI50: "> 100 µM (inactive)"
- compound: "CC(C)N(C(=O)c1ccc(NCc2cc(O)ccc2O)cc1)C(C)C"
  GI50: "14.7 µM (inactive)"
- compound: "Cc1ccc(C2SC(=N)Nc3c2c(C)nn3C(=O)c2ccccc2O)cc1 (stereo unspecified)"
  GI50: "> 10 µM (inactive)"

Attention now shifts to the item below.
Asked: For the compound Cc1ccc([N+]2=NC(c3ccc([N+](=O)[O-])cc3)=NN(c3ccccc3)C2)cc1 , what GI50 is on record?
Given back: 43.7 µM (inactive)

* * *

- System: DLD-1
- methodDescription: NCI tumour cell line growth inhibition, 48 h
Calls of active or inactive are those of the source. Cut-off read from the data, not from the text of the source: active = GI50 up to about 1.1 µM and inactive = higher.
assayEndpoint: GI50

Asked: For the compound CCN(CC)C1CC(n2cc(C)c(=O)[nH]c2=O)OC1CO (stereo unspecified) , what GI50 is on record?
Given back: > 100 µM (inactive)

Asked: For the compound C=C1C(=O)OC2C[C@@]3(C)CCCC(=C)C3CC12 (stereo partly specified) , what GI50 is on record?
Given back: 3.49 µM (inactive)

Asked: For the compound C=C(C)[C@H](O)C(O)CC(C)[C@@H]1CCC23CC12CCC1[C@@]2(C)CCC(OC(C)=O)C(C)(C)C2CC(OC2OC(COC(C)=O)C(O)C(O)C2O)[C@]13C (stereo partly specified) , what GI50 is on record?
Given back: 5.52 µM (inactive)

Asked: For the compound CCOP1(=O)C=C(C)C(Cl)=C(C)C1 (stereo unspecified) , what GI50 is on record?
Given back: 25.9 µM (inactive)

Asked: For the compound Cc1nc(O)nc(O)c1/C=C/C(=O)O , what GI50 is on record?
Given back: > 1000 µM (inactive)

Asked: For the compound Cc1ccc(NC(=O)C2C3C=CC(O3)C2C(=O)O)cc1 (stereo unspecified) , what GI50 is on record?
Given back: > 100 µM (inactive)

Asked: For the compound O=C1C=CC(=O)C2C1Cc1ccccc1C2c1ccccc1 (stereo unspecified) , what GI50 is on record?
Given back: 56.2 µM (inactive)

Asked: For the compound COC(=O)C(C)(C)/N=C/N(C)C , what GI50 is on record?
Given back: > 100 µM (inactive)

Asked: For the compound Cc1cc(Cl)ccc1NC(=O)CC1SC(N)=NC1=O (stereo unspecified) , what GI50 is on record?
Given back: > 100 µM (inactive)

Asked: For the compound O=C1c2cccc3cc([N+](=O)[O-])cc(c23)C(=O)N1NC1=NCCN1 , what GI50 is on record?
Given back: > 100 µM (inactive)

Asked: For the compound N=C(NC(=S)N1CCCCC1)N1CCCCC1 , what GI50 is on record?
Given back: > 100 µM (inactive)
